// provenance: patent US20230158141A1

- target_under_test: PD-1 (UniProt Q15116 25-167, limits assumed)
- Sequence (Q15116 25-167 limits assumed): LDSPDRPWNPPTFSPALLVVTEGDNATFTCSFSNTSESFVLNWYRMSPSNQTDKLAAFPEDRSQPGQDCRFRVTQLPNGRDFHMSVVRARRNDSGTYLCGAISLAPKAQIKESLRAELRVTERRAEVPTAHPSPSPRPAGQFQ
- assay_explanation: ELISA, conjugate vs WT antibody
measure: binding activity (% of WT) (%)
Lab book: enter the figure in %, no units written.

Report binding activity (% of WT) for anti-PD-1 antibody 1 light chain T31C-R4-1 (antibody, human IgG4 S228P, kappa, V domains shown, R4-1 on Cys 31) VH: QVQLVQSGVEVKKPGASVKVSCKASGYTFTNYYMYWVRQAPGQGLEWMGGINPSNGGTNFNEKFKNRVTLTTDSSTTTAYMELKSLQFDDTAVYYCARRDYRFDMGFDYWGQGTTVTVSS VL: EIVLTQSPATLSLSPGERATLSCRASKGVSCSGYSYLHWYQQKPGQAPRLLIYLASYLESGVPARFSGSGSGTDFTLTISSLEPEDFAVYYCQHSRDLPLTFGGGTKVEIKR please.
84.4
